Test system: Hs-578T
MEASUREMENT_DESCRIPTION: NCI tumour cell line growth inhibition, 48 h
The source made the active and inactive calls. Rule as the data show it: active = GI50 up to about 1.1 µM and inactive = higher.
Answer with one of the outcomes given here: T (active), F (inactive)

CN(C)C[C@H]1CC[C@@H](CN(C)C)C1=O: F
CC/C(=N/O)c1ccc(Br)s1: F
Fc1cccc(F)c1C1SCC2=Nc3ccccc3CN21 (stereo unspecified): F
CCOC(=O)c1[nH]cc(C)c1-c1ccn(-c2ccccc2)c1: F

Okay, now this molecule:
stdin: Which result was noted for this molecule in the test: COC1=CC(=O)c2c(c(COP(=O)(N(C)CCBr)N(C)CCBr)cn2C)C1=O
stdout: T

###

System: U-251
MEASUREMENT_DESCRIPTION: NCI tumour cell line growth inhibition, 48 h
The source made the active and inactive calls. No stated cut-off is given here; in the data, active = GI50 up to about 1.1 µM and inactive = higher.
Collected GI50 values appear next to each entry.

Previously resolved entries follow.
N/C(COc1ccc(Cl)cc1)=N\NC(=O)c1ccncc1: > 100 µM (inactive)
O=C1CC(=O)c2c(Cl)sc(Cl)c21: > 100 µM (inactive)
CCOC(=O)/C(=C\NC(=S)Nc1ccc(Cl)c(Cl)c1)C(=O)c1ccccc1: 37.2 µM (inactive)

Proceeding to the next compound to report its GI50.
stdin: Which GI50 reading was recorded for the compound Nc1ncnc2c1ncn2CCCNO ?
stdout: > 100 µM (inactive)

###

Tested on: MCF7
MEASUREMENT_DESCRIPTION: NCI tumour cell line growth inhibition, 48 h
Active and inactive are the calls of the source. Rule as the data show it: active = GI50 up to about 1.1 µM and inactive = higher.
Answer with one of the outcomes given here: Y = active, N = inactive

CCN(CC)c1ccc2cc(C(=O)Nc3ccccc3OC)c(=N)oc2c1: N
Nc1ncnc2c1ncn2CCCNO: N
CCOC(=O)/C(=C\c1c[nH]c2ccccc12)P(=O)(OCC)OCC: N
CC(C)(C(=O)NN)c1ccccc1: N
C/C(=N\N=C(/[SeH])N1CC2CCC(CC2)C1)c1ccccn1: Y

Okay, now this compound:
stdin: Which result was noted for this compound in the test: COC(=O)/C(C#N)=C/c1cc(C(C)(C)C)c(O)c(C(C)(C)C)c1
stdout: N

###

Test system: SK-MEL-5
MEASUREMENT_DESCRIPTION: NCI tumour cell line growth inhibition, 48 h
Calls of active or inactive are those of the source. Rule as the data show it: active = GI50 up to about 1.1 µM and inactive = higher.
Answer with one of the outcomes given here: active, inactive

Reference set (5 entries):
CC(=N)OC1CC2CCC1(C)C2(C)C (stereo not given): inactive
COC(=O)N1CC[C@@H]2CCC=C(c3cccc4c3OCO4)[C@@H]21: inactive
COc1ccc2cc(Oc3ccc(Cl)cc3)c(=O)oc2c1: inactive
NC(CCC(=O)NC(CSSCCCCS(=O)O)C(=O)NCC(=O)O)C(=O)O (stereo not given): inactive
COc1ccc2c(C(=O)c3cn(CCN4CCOCC4)c4ccccc34)cccc2c1: inactive

stdin: Which result was noted for this compound in the test: O=C1C=C(NCCc2ccc(O)cc2)C(=O)C=C1NCCc1ccc(O)cc1
stdout: inactive

stdin: Which result was noted for this compound in the test: S=C1SC(=N\c2ccccc2)/C(=N/c2ccccc2)N1c1ccc2ccccc2c1
stdout: inactive

stdin: Which result was noted for this compound in the test: CN1Cc2c(nc(-c3ccc(Br)cc3)c[n+]2[O-])N(C)C1
stdout: inactive

stdin: Which result was noted for this compound in the test: CC1C=C(CCCCCCCCCCCC[C@@H](O)[C@@H]2CC[C@@H]([C@@H]3CC[C@@H](C(O)CCCCCCCCCCCCC4=C[C@H](C)OC4=O)O3)O2)C(=O)O1 (stereo not given in full)
stdout: active

stdin: Which result was noted for this compound in the test: CC1CCc2sc3nc(S)n(-c4ccccc4)c(=O)c3c2C1 (stereo not given)
stdout: inactive

stdin: Which result was noted for this compound in the test: CCC(=O)Nc1ccc(NC(C#N)c2cccc(Oc3ccccc3)c2)cc1 (stereo not given)
stdout: inactive

###

System: KM12
MEASUREMENT_DESCRIPTION: NCI tumour cell line growth inhibition, 48 h
Calls of active or inactive are those of the source. No stated cut-off is given here; in the data, active = GI50 up to about 1.1 µM and inactive = higher.
Collected GI50 values appear next to each entry.

CSC(SC)=C(C(=O)c1ccc(Cl)cc1)n1c(=O)sc2cc(Br)ccc21: > 100 µM (inactive)
O=c1c2cc(O)ccc2n2nnc3ccc(NCCNCCO)c1c32: 11.2 µM (inactive)

stdin: Which GI50 reading was recorded for the compound Cn1c(=O)n2c(=O)n(C)c(=O)n2c1=O ?
stdout: > 100 µM (inactive)

###

Test system: LXFL 529
MEASUREMENT_DESCRIPTION: NCI tumour cell line growth inhibition, 48 h
Activity calls are given as the source filed them. No stated cut-off is given here; in the data, active = GI50 up to about 1.1 µM and inactive = higher.
MEASUREMENT_KIND: GI50

Previously resolved entries follow.
CC1(C)CC(=O)C(=[N+]=[N-])C(=O)C1: > 100 µM (inactive)
CCOC(=O)C(C)(C)Oc1ccc2c(=O)cc(-c3ccccc3)oc2c1: 19 µM (inactive)

Proceeding to the next molecule to report its GI50.
stdin: Which GI50 reading was recorded for the molecule N#CC(C(=O)CCC(=O)C(C#N)c1ccccc1)c1ccccc1 (stereo not drawn) ?
stdout: > 100 µM (inactive)

###

Test system: SNB-75
MEASUREMENT_DESCRIPTION: NCI tumour cell line growth inhibition, 48 h
Active and inactive are the calls of the source. No stated cut-off is given here; in the data, active = GI50 up to about 1.1 µM and inactive = higher.
Answer with one of the outcomes given here: active, inactive

c1ccc(/C(=N/Nc2ccccn2)c2ncccn2)cc1: inactive
CCOC(=O)/C(=C\c1c[nH]c2ccccc12)P(=O)(OCC)OCC: inactive
CC(=O)NC(C=O)C(O[C@H](C)C(=O)NC(C)C(=O)NC(CCC(N)=O)C(=O)OCc1ccccc1)C(O)C(O)COC(=O)CCNc1c2ccccc2nc2cccc([N+](=O)[O-])c12 (stereo partly drawn): inactive
NC(=O)C(=Cn1c(=S)[nH]c2ccc([N+](=O)[O-])cc21)C(N)=O: inactive
CCOC(=O)c1c(NS(=O)(=O)c2ccc(Br)cc2)sc2c1CCCC2: inactive

stdin: Which result was noted for this compound in the test: COc1cc2c3c(c1OC)C1(C=CC(=O)C=C1)CC3N(C(=O)OC(C)(C)C(Cl)(Cl)Cl)CC2 (stereo not drawn)
stdout: inactive

stdin: Which result was noted for this compound in the test: COc1ccc(CCC2c3cc(OC)c(OC)cc3CCN2C)cc1OC (stereo not drawn)
stdout: inactive

stdin: Which result was noted for this compound in the test: CC1C=C(CCCCCCCCCCCC[C@@H](O)[C@@H]2CC[C@@H]([C@@H]3CC[C@@H](C(O)CCCCCCCCCCCCC4=C[C@H](C)OC4=O)O3)O2)C(=O)O1 (stereo partly drawn)
stdout: inactive

stdin: Which result was noted for this compound in the test: CCOC(=O)c1ccc(N2C(=O)Cc3ccccc3C2=O)cc1
stdout: inactive

stdin: Which result was noted for this compound in the test: Cc1cc(C)[n+](CCOc2ccc(/C(=C(/Cl)c3ccccc3)c3ccccc3)cc2)c(C)c1.[O-][Cl+3]([O-])([O-])[O-]
stdout: active

stdin: Which result was noted for this compound in the test: NS(=O)(=O)c1ccc(/N=N/c2nc3nc(O)nc(O)c3[nH]2)cc1
stdout: inactive

stdin: Which result was noted for this compound in the test: O=S(=O)(O)SC/C=C\CSS(=O)(=O)O
stdout: inactive

stdin: Which result was noted for this compound in the test: C/C(=N\Nc1ccc([N+](=O)[O-])cc1)C(=O)N(C)Nc1ccccc1
stdout: inactive

stdin: Which result was noted for this compound in the test: COc1cccc(/C=C/c2cc(OC)c(OC)c(OC)c2)c1
stdout: inactive

stdin: Which result was noted for this compound in the test: CC1CC[C@]2(C(=O)O)CCC3(COC(=O)/C=C\c4ccc(O)cc4)C(=CCC4[C@@]5(C)CC[C@H](O)C(C)(C)C5CC[C@]43C)[C@@H]2[C@H]1C (stereo partly drawn)
stdout: inactive

stdin: Which result was noted for this compound in the test: CSc1nc(SC)c2c(C)c(Br)[nH]c2n1
stdout: inactive

stdin: Which result was noted for this compound in the test: CCN(CC)CCN1C(=O)c2cccc3cc(N)cc(c23)C1=O
stdout: inactive

stdin: Which result was noted for this compound in the test: CCCCCCCCCCCCCCCCOc1ccc(/C=C/C2=[N+](CCCl)CCO2)cc1
stdout: inactive

stdin: Which result was noted for this compound in the test: COc1ccc2[nH]c3c(c2c1)[C@H](c1ccccc1)C[C@@H]1C(=O)N(c2ccccc2)C(=O)[C@H]31
stdout: inactive

stdin: Which result was noted for this compound in the test: Cc1cc(-c2c(Br)cc(C(=O)O)n2C)on1
stdout: inactive

stdin: Which result was noted for this compound in the test: NC(=O)SCC(=O)Nc1ccc2cccc3c2c1CC3
stdout: inactive

stdin: Which result was noted for this compound in the test: C[C@H]1SC(c2ccc(Cl)cc2Cl)N(NC(=O)c2ccncc2)C1=O (stereo partly drawn)
stdout: inactive

stdin: Which result was noted for this compound in the test: CCOC(=O)c1cc(-c2cc(OC)c(OC)c([N+](=O)[O-])c2)c([N+](=O)[O-])n1C
stdout: inactive

###

System: U-251
MEASUREMENT_DESCRIPTION: NCI tumour cell line growth inhibition, 48 h
Calls of active or inactive are those of the source. Cut-off read from the data, not from the text of the source: active = GI50 up to about 1.1 µM and inactive = higher.
MEASUREMENT_KIND: GI50

Previously resolved entries follow.
Nc1nc(N)c(NC(=O)CCCO)c(=O)[nH]1: > 100 µM (inactive)
O=C(c1ccc(Cl)cc1Cl)C1[C@H]2C(=O)N(c3ccc(Cc4ccc(N5C(=O)[C@@H]6ON(c7ccccc7)C(C(=O)c7ccc(Cl)cc7Cl)[C@@H]6C5=O)cc4)cc3)C(=O)[C@H]2ON1c1ccccc1 (some centres undefined): > 50 µM (inactive)
Nc1ccc(S(=O)(=O)Nc2cnc3c(Cl)cccc3n2)cc1: 207 µM (inactive)

Proceeding to the next molecule to report its GI50.
stdin: Which GI50 reading was recorded for the molecule COc1ccc(O[C@H](CO)C[C@@H]2COC(C)(C)O2)cc1 ?
stdout: > 100 µM (inactive)
